Tested on: Shigella flexneri
PROTOCOL: In vitro antibacterial activity against Shigella flexneri 2a EW-10
Type: functional
EXPERIMENTAL_PARAMETERS: Shigella flexneri; read-out: MIC
TEST_READOUT: MIC (µg/mL)

compound=O=C(O)c1c2n(c3cc(N4CCNCC4)c(Cl)cc3c1=O)CS2 measured_on="Shigella flexneri" censor_symbol== value_reported=0.1
compound="CC1Sc2c(C(=O)O)c(=O)c3cc(F)c(N4CCN(c5ccccc5)CC4)cc3n21 (stereo unspecified)" measured_on="Shigella flexneri" censor_symbol=> value_reported=100
compound="CC1Sc2c(C(=O)O)c(=O)c3cc(F)c(N4CCCC4)cc3n21 (stereo unspecified)" measured_on="Shigella flexneri" censor_symbol== value_reported=0.1
compound="CN1CCN(c2cc3c(cc2F)c(=O)c(C(=O)O)c2n3C(c3ccccc3)S2)CC1 (stereo unspecified)" measured_on="Shigella flexneri" censor_symbol== value_reported=0.2
compound="CC1Sc2c(C(=O)O)c(=O)c3cc(F)c(N4CCSCC4)cc3n21 (stereo unspecified)" measured_on="Shigella flexneri" censor_symbol== value_reported=0.1
compound="O=C(O)c1c2n(c3cc(N4CCNCC4)c(F)cc3c1=O)C(c1ccccc1F)S2 (stereo unspecified)" measured_on="Shigella flexneri" censor_symbol== value_reported=0.78
